Data origin: paper PMC6736360

Experiment: Mouse gastrointestinal tissue pharmacokinetics
Format: in vivo, mice
Details: mouse, duodenum, oral, elacridar in Duodenum; read-out: AUC0-12
readoutKind: AUC(0-t)
Please answer in the form of a number followed by its unit of measurement.

Value of AUC(0-t) reported for the compound COc1cc2c(cc1OC)CN(CCc1ccc(NC(=O)c3cccc4c(=O)c5cccc(OC)c5[nH]c34)cc1)CC2 [elacridar, reference compound] is 118 µM·h

* * *

Assay: In vitro solubility at pH 2 and 6.5
Type: physicochemical
Conditions: pH 6.5, represents small intestine; read-out: Solubility (pH 6.5)
readoutKind: solubility (µM)
// units = µM; emit number, no label

Memo: "CCOc1ccc2cc(-c3nn(CC4CCNCC4)c4ncnc(N)c34)ccc2n1" , reported solubility: 56

* * *

Assay: Mouse gastrointestinal tissue pharmacokinetics
Format: in vivo, mice
Settings: mouse, duodenum, oral, elacridar in Duodenum; read-out: Observed Cmax
readoutKind: Cmax (µM)
// note: answer is a bare numeric in µM

Given item COc1cc2c(cc1OC)CN(CCc1ccc(NC(=O)c3cccc4c(=O)c5cccc(OC)c5[nH]c34)cc1)CC2 [elacridar, reference compound] , the value recorded as its Cmax is 61.2

* * *

# key: entry, value: EC50
System: Cryptosporidium parvum
Experiment: C. parvum growth inhibition, nonpolarized HCT-8 coculture assay
Assay type: cell-based
Conditions: Cryptosporidium parvum, HCT-8; in vitro; read-out: C. parvum EC50
Reply numerically in nM, unit not repeated.

The following molecules have reported results that may help.
>  <smilesData>
CCOc1ccc2cc(-c3nn(CC4CCNCC4)c4ncnc(N)c34)ccc2n1

>  <endpointValue>
3200

$$$$
>  <smilesData>
CCOc1ccc2cc(-c3nn(CC4CCN(C)CC4)c4ncnc(N)c34)ccc2n1

>  <endpointValue>
2300

$$$$

GET /value?item= "CCOc1ccc2cc(-c3nn(CC4CCN(C)CC4)c4ncnc(N)c34)ccc2c1" &field=EC50 returns 2700

* * *

Test: Mouse gastrointestinal tissue pharmacokinetics
Type: in vivo, mice
Details: mouse, ileum, po, Ileum, BKI 1318 alone; read-out: Tmax
readoutKind: Tmax (h)
Form entry: value (h) — number only.

CCOc1ccc2cc(-c3nn(CC4CCNCC4)c4ncnc(N)c34)ccc2n1 [BKI1318] has a reported Tmax of 4.3

* * *

Assay: Mouse oral plasma pharmacokinetics with or without elacridar
Assay type: in vivo, mice
Conditions: mouse, plasma, po, mouse plasma, oral; 1369 60 mg/kg, 1318 50 mg/kg; 30 mg/kg elacridar 15 minutes before; read-out: Tmax w/ Elacridar
This section presents compounds with their documented Tmax values.
Respond with a number, then the unit of measure.

>  <compound>
CCOc1ccc2cc(-c3nn(CC4CCN(C)CC4)c4ncnc(N)c34)ccc2n1 [BKI1369]

>  <endpointValue>
4 h

$$$$

Below: the item to evaluate.
CCOc1ccc2cc(-c3nn(CC4CCNCC4)c4ncnc(N)c34)ccc2n1 [BKI1318] has a reported Tmax of 2 h

* * *

Test: In vitro solubility at pH 2 and 6.5
Format: physicochemical
Conditions: pH 2, represents stomach; read-out: Solubility (pH 2)
Quick reference for solubility among some compounds

>  <compound>
CCOc1ccc2cc(-c3nn(CC4CCN(C)CC4)c4ncnc(N)c34)ccc2n1 [BKI1369]

>  <solubility>
> 100 µM

$$$$
>  <compound>
CCOc1ccc2cc(-c3nn(CC4CCN(C)CC4)c4ncnc(N)c34)ccc2c1 [BKI1294]

>  <solubility>
> 100 µM

$$$$

Moving on to the next compound.
The compound CCOc1ccc2cc(-c3nn(CC4CCNCC4)c4ncnc(N)c34)ccc2n1 [BKI1318] showed solubility equal to > 100 µM
